Attribution: ChEMBL document CHEMBL3608228

# Tested on: HepG2
# assay_summary: Cytotoxicity against human HepG2 cells assessed as cell growth inhibition after 72 hrs by MTT assay
# Format: functional, cell-based
# measurement_conditions: HepG2, 72 h
Listed below: IC50 values for each entry.
measurement_name: IC50

In [3]: df
Out[3]:
                    structure_smiles_string   result
0  Cc1ccc(/C=C/[C@]2(C)CC[C@@](C)(/C=C/C3=C[C@H](O)[C@](C)(O)C[C@@H]3O)O2)cc1  > 50 µM
1  Cc1ccc(/C=C/[C@]2(C)CC[C@](C)(/C=C/C3=C[C@H](O)[C@](C)(O)C[C@@H]3O)O2)cc1  > 50 µM
2  Cc1ccc(/C=C/[C@@]2(C)CC[C@](C)(/C=C/C3=C[C@H](O)[C@](C)(O)C[C@@H]3O)O2)cc1  31.1 µM
3  Cc1ccc(/C=C/[C@@]2(C)CC[C@@](C)(/C=C/C3=C[C@H](O)[C@](C)(O)C[C@@H]3O)O2)cc1  > 50 µM
